Test system: human corneal epithelial (HCE-T) cell line
measurement.protocol: MTT cytotoxicity assay on HCE-T cells
Type: cell-based
Experimental: The human corneal epithelial cell line HCE-T (Cellosaurus accession: CVCL_1272, RRID: CVCL_1272, RCB: RCB2280) was purchased from Procell Life Science and Technology Co., Ltd. (Wuhan, China). […] HCE-T cells were seeded in 96-well plates (8 × 10^3 cells/well, 100 μL medium) and cultured overnight at 37 °C, 5% CO2 for adhesion. […] The IC50 values of test compounds were calculated by Graphpad Prism 8.5 (GraphPad Software Co., San Diego, CA, USA).
quantity.kind: IC50

compound="COc1ccc2cc3[n+](cc2c1OC)CCc1cc(O)c(O)cc1-3 [M3, demethyleneberberine]" quantity_kind=IC50 readout_value="> 400 µM"

* * *

The following compounds are shown together with reported LC50 values.
measurement.protocol: Zebrafish embryonic developmental toxicity (mortality, LC50)
Parameters: species or system zebrafish (Danio rerio)
measurement.context: wild-type AB, in vivo, exposure from 6 hpf, mortality at 5 dpf, read-out: LC50 (half-lethal concentration)
quantity.kind: LC50

smiles_repr=COc1ccc2cc3[n+](cc2c1O)CCc1cc2c(cc1-3)OCO2 readout_value="558 µM"
smiles_repr=COc1ccc2cc3[n+](cc2c1OC)CCc1cc2c(cc1-3)OCO2 readout_value="167 µM"
